Hi there, I'd appreciate the recorded EC50 for every entry that follows.
Biological target: human GIP receptor (hGIPR) (Homo sapiens)
Construct: expressed in transfected cells
Sequence (P48546 22-466): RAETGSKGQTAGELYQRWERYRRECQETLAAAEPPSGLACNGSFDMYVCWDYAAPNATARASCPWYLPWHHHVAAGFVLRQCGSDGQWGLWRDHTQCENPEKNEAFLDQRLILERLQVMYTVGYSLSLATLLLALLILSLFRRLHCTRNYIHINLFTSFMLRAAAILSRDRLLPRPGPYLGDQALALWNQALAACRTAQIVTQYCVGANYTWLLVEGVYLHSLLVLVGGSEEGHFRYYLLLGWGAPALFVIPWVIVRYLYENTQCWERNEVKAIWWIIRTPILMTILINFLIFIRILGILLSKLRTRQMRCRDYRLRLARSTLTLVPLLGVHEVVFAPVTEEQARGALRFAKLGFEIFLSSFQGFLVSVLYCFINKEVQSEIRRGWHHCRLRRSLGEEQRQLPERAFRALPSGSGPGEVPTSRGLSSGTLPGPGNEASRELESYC
Assay: GIP receptor assay, method A (CRE-luciferase reporter, BHK cells)
Assay type: cell-based
Settings: method A, absence of HSA; read-out: hGIPR Potency, no HSA, EC50
Numbered stars: 1 amine (or outer) side, 2 acyl side, 3 side chain; on linkers, the order of the positions; unused ones are H or OH. Square brackets hold non-standard residues; d marks the D form. Side chains are listed from the residue outwards. * marks the point of attachment. C18 diacid = O=C(O)CCCCCCCCCCCCCCCCC(=O)*; C16 diacid = O=C(O)CCCCCCCCCCCCCCC(=O)*; γGlu = O=C(O)[C@H](CCC(=O)[*:2])N[*:1]; AEEA = NCCOCCOCC(=O)O; Aib = CC(C)(N)C(=O)O
Note: unit pM is implicit; provide only the numeric part.

Input Y[Aib]EGTFTSDYSILLEEQAAREFIEWLLAGGPSSGEASHLSTAQTQRLSAK([AEEA-AEEA-γGlu-C18 diacid])LHRLATLPRTETGSGSP-NH2 [Compound 79] . Output EC50: 4.7

Input Y[Aib]EGTFTSDYSILLEEQAAREFIEWLLAGGPSSGAGQAPGQAPGASHLSTAQTARLSAELHK([AEEA-AEEA-γGlu-C18 diacid])LATLPRTETGSGSP-NH2 [Compound 113] . Output EC50: 2.02

Input H[Aib]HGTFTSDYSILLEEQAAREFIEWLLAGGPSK([AEEA-AEEA-γGlu-C18 diacid])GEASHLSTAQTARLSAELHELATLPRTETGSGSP-NH2 [Compound 36] . Output EC50: 1.96

Input Y[Aib]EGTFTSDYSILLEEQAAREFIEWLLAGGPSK([AEEA-AEEA-γGlu-C16 diacid])GASELSTAALGRLSAELHRLATLPRTETGSGSP-NH2 [Compound 20] . Output EC50: 4.82

Input Y[Aib]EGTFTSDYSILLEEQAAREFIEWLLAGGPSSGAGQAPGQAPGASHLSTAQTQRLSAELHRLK([AEEA-AEEA-AEEA-γGlu-C18 diacid])TLPRTETGSGSP-NH2 [Compound 111] . Output EC50: 3.66
